Tested on: Erythrocyte
assay_notes: Hemolytic activity against mouse erythrocytes measured after 1 hr
Format: ADME, cell-based
Residues, ends and D or L forms follow the SMILES beside them. *: point of attachment. Stearoyl = CCCCCCCCCCCCCCCCCC(=O)*; Lauroyl = CCCCCCCCCCCC(=O)*; Decanoyl = CCCCCCCCCC(=O)*
property_label: MHC10

Some solved cases for reference:
| compound | observed_result |
| --- | --- |
| CCCCCCCCCC(=O)N[C@@H](CCCNC(=N)N)C(=O)N[C@@H](CCCNC(=N)N)C(=O)N[C@@H](Cc1c[nH]c2ccccc12)C(N)=O (Decanoyl-Arg-Arg-Trp-NH2) | > 256 µM |
| CCCCCCCCCCCCCCCCCC(=O)N[C@@H](CCCNC(=N)N)C(=O)N[C@@H](Cc1c[nH]c2ccccc12)C(=O)N[C@@H](Cc1c[nH]c2ccccc12)C(N)=O (Stearoyl-Arg-Trp-Trp-NH2) | 256 µM |
| CCCCCCCCCC(=O)N[C@@H](CCCNC(=N)N)C(=O)N[C@@H](Cc1c[nH]c2ccccc12)C(=O)N[C@@H](Cc1c[nH]c2ccccc12)C(N)=O (Decanoyl-Arg-Trp-Trp-NH2) | > 256 µM |
| CCCCCCCCCCCC(=O)N[C@@H](CCCNC(=N)N)C(=O)N[C@@H](CCCNC(=N)N)C(=O)N[C@@H](CCCNC(=N)N)C(N)=O (Lauroyl-Arg-Arg-Arg-NH2) | > 256 µM |

Q) # get_value(readout='MHC10', item= CCCCCCCCCCCCCCCCCC(=O)N[C@@H](Cc1c[nH]c2ccccc12)C(=O)N[C@@H](CCCNC(=N)N)C(=O)N[C@@H](CCCNC(=N)N)C(N)=O (Stearoyl-Trp-Arg-Arg-NH2) )
A) 32 µM

###

Catalogue of MIC readings, one per entry.
Tested on: Staphylococcus aureus
assay_notes: Antimicrobial activity against methicillin-resistant Staphylococcus aureus 75 after 18 hrs by broth microdilution method
Format: functional
Residues, ends and D or L forms follow the SMILES beside them. *: point of attachment. Palmitoyl = CCCCCCCCCCCCCCCC(=O)*
Give just the numeric value; µM need not be written.

| compound | property_label | unit_annotation | observed_result |
| --- | --- | --- | --- |
| CCCCCCCCCCCCCCCC(=O)N[C@@H](CCCNC(=N)N)C(=O)N[C@@H](CCCNC(=N)N)C(=O)N[C@@H](Cc1c[nH]c2ccccc12)C(N)=O (Palmitoyl-Arg-Arg-Trp-NH2) | MIC | µM | 8 |

Kindly review the next compound as well.
Q) MIC of CCCCCCCCCCCCCCCC(=O)N[C@@H](Cc1c[nH]c2ccccc12)C(=O)N[C@@H](CCCNC(=N)N)C(=O)N[C@@H](CCCNC(=N)N)C(N)=O (Palmitoyl-Trp-Arg-Arg-NH2) on Staphylococcus aureus?
A) 8

###

Tested on: Staphylococcus epidermidis
assay_notes: Antimicrobial activity against Staphylococcus epidermidis ATCC 12228 after 18 hrs by broth microdilution method
Assay type: functional
Residues, ends and D or L forms follow the SMILES beside them. *: point of attachment. Palmitoyl = CCCCCCCCCCCCCCCC(=O)*; Lauroyl = CCCCCCCCCCCC(=O)*; Octanoyl = CCCCCCCC(=O)*
Catalogue of MIC readings, one per entry.
A complete answer gives the number and then names the unit.

| compound | MIC |
| --- | --- |
| CCCCCCCCCCCC(=O)N[C@@H](Cc1c[nH]c2ccccc12)C(=O)N[C@@H](CCCNC(=N)N)C(=O)N[C@@H](CCCNC(=N)N)C(N)=O (Lauroyl-Trp-Arg-Arg-NH2) | 8 µM |
| CCCCCCCC(=O)N[C@@H](CCCNC(=N)N)C(=O)N[C@@H](Cc1c[nH]c2ccccc12)C(=O)N[C@@H](CCCNC(=N)N)C(N)=O (Octanoyl-Arg-Trp-Arg-NH2) | 128 µM |

Kindly review the next compound as well.
Q) # get_value(readout='MIC', item= CCCCCCCCCCCCCCCC(=O)N[C@@H](CCCNC(=N)N)C(=O)N[C@@H](CCCNC(=N)N)C(=O)N[C@@H](CCCNC(=N)N)C(N)=O (Palmitoyl-Arg-Arg-Arg-NH2) )
A) 8 µM

###

Tested on: Lipopolysaccharide (LPS)
assay_notes: Binding affinity to LPS (unknown origin) assessed as bacterial killing at 2 times MIC preincubated for 1 hr followed by Staphylococcus aureus ATCC 25923 addition and measured after 2 hrs by colony counting method
experimental_setup: time 3.0 hrs
Calls of active or inactive are those of the source. The rule behind the calls is not given here. Positions of bridges follow the written chain, without caps; N, C: chain ends. Non-standard residues stand in square brackets, D forms with d. Residues, ends and D or L forms follow the SMILES beside them. *: point of attachment. Myristoyl = CCCCCCCCCCCCCC(=O)*; Lauroyl = CCCCCCCCCCCC(=O)*; X1 = CC[C@H](C)CCCCC(=O)*; Dab = NCC[C@H](N)C(=O)O
// classify into active, inactive

| compound | class |
| --- | --- |
| O=C(O)c1cn(C2CC2)c2cc(N3CCNCC3)c(F)cc2c1=O | inactive |
| CCCCCCCCCCCC(=O)N[C@@H](CCCNC(=N)N)C(=O)N[C@@H](CCCNC(=N)N)C(=O)N[C@@H](Cc1c[nH]c2ccccc12)C(N)=O (Lauroyl-Arg-Arg-Trp-NH2) | active |
| CC[C@H](C)CCCCC(=O)N[C@@H](CCN)C(=O)N[C@H](C(=O)N[C@@H](CCN)C(=O)N[C@H]1CCNC(=O)[C@H]([C@@H](C)O)NC(=O)[C@H](CCN)NC(=O)[C@H](CCN)NC(=O)[C@H](CC(C)C)NC(=O)[C@@H](Cc2ccccc2)NC(=O)[C@H](CCN)NC1=O)[C@@H](C)O (X1-[Dab]T[Dab][Dab][Dab][dF]L[Dab][Dab]T; lactam 4-C) | active |

Consider now this further compound.
Q) Outcome? CCCCCCCCCCCCCC(=O)N[C@@H](CCCNC(=N)N)C(=O)N[C@@H](Cc1c[nH]c2ccccc12)C(=O)N[C@@H](Cc1c[nH]c2ccccc12)C(N)=O (Myristoyl-Arg-Trp-Trp-NH2)
A) active

###

assay_notes: Therapeutic index, ratio of MHC for mouse RBC to geometric mean of peptide MIC for Staphylococcus epidermidis ATCC 12228
Format: toxicity
experimental_setup: pooled result: one value given for 6 cell lines, strains, targets or settings, read-out: TI
Residues, ends and D or L forms follow the SMILES beside them. *: point of attachment. Stearoyl = CCCCCCCCCCCCCCCCCC(=O)*; Myristoyl = CCCCCCCCCCCCCC(=O)*; Lauroyl = CCCCCCCCCCCC(=O)*; Decanoyl = CCCCCCCCCC(=O)*
property_label: selectivity ratio
// no unit, no text: just the number

Some solved cases for reference:
| molecule | observed_result |
| --- | --- |
| CCCCCCCCCC(=O)N[C@@H](CCCNC(=N)N)C(=O)N[C@@H](CCCNC(=N)N)C(=O)N[C@@H](CCCNC(=N)N)C(N)=O (Decanoyl-Arg-Arg-Arg-NH2) | 5.05 |
| CCCCCCCCCCCCCCCCCC(=O)N[C@@H](CCCNC(=N)N)C(=O)N[C@@H](Cc1c[nH]c2ccccc12)C(=O)N[C@@H](Cc1c[nH]c2ccccc12)C(N)=O (Stearoyl-Arg-Trp-Trp-NH2) | 1.09 |
| CCCCCCCCCCCCCC(=O)N[C@@H](CCCNC(=N)N)C(=O)N[C@@H](CCCNC(=N)N)C(=O)N[C@@H](Cc1c[nH]c2ccccc12)C(N)=O (Myristoyl-Arg-Arg-Trp-NH2) | 6 |
| CCCCCCCCCCCCCC(=O)N[C@@H](CCCNC(=N)N)C(=O)N[C@@H](CCCNC(=N)N)C(=O)N[C@@H](CCCNC(=N)N)C(N)=O (Myristoyl-Arg-Arg-Arg-NH2) | 6.86 |

Kindly review the next molecule as well.
Q) # get_value(readout='selectivity ratio', item= CCCCCCCCCCCC(=O)N[C@@H](CCCNC(=N)N)C(=O)N[C@@H](CCCNC(=N)N)C(=O)N[C@@H](CCCNC(=N)N)C(N)=O (Lauroyl-Arg-Arg-Arg-NH2) )
A) 25.6

###

Tested on: Staphylococcus aureus
assay_notes: Antimicrobial activity against Staphylococcus aureus ATCC 25923 after 18 hrs by broth microdilution method
Format: functional
Residues, ends and D or L forms follow the SMILES beside them. *: point of attachment. Lauroyl = CCCCCCCCCCCC(=O)*; Decanoyl = CCCCCCCCCC(=O)*; Octanoyl = CCCCCCCC(=O)*
Simple rule here: MIC less than 8 µM is true, otherwise false.

Would you please look over these solved cases?
| molecule | class |
| --- | --- |
| CCCCCCCC(=O)N[C@@H](CCCNC(=N)N)C(=O)N[C@@H](CCCNC(=N)N)C(=O)N[C@@H](Cc1c[nH]c2ccccc12)C(N)=O (Octanoyl-Arg-Arg-Trp-NH2) | false |
| O=C(O)c1cn(C2CC2)c2cc(N3CCNCC3)c(F)cc2c1=O [CIPROFLOXACIN] | true |
| CCCCCCCCCC(=O)N[C@@H](CCCNC(=N)N)C(=O)N[C@@H](CCCNC(=N)N)C(=O)N[C@@H](CCCNC(=N)N)C(N)=O (Decanoyl-Arg-Arg-Arg-NH2) | false |
| CCCCCCCC(=O)N[C@@H](CCCNC(=N)N)C(=O)N[C@@H](CCCNC(=N)N)C(=O)N[C@@H](CCCNC(=N)N)C(N)=O (Octanoyl-Arg-Arg-Arg-NH2) | false |

Consider now this further molecule.
Q) Confirm or reject: MIC of CCCCCCCCCCCC(=O)N[C@@H](CCCNC(=N)N)C(=O)N[C@@H](CCCNC(=N)N)C(=O)N[C@@H](Cc1c[nH]c2ccccc12)C(N)=O (Lauroyl-Arg-Arg-Trp-NH2) lies strictly below 8 µM
A) true
